IC50 by entry:
# System: A-375
# test details: Antitumor activity against human A-375 cells assessed as cell viability preincubated with compound for 4 hrs followed by light irradiation for 30 mins and measured after 24 hrs under normoxic condition by MTT assay
# Type: functional, cell-based
# conditions: A-375, light or radiation study
Quick note: give the figure in µM, leave out the unit.

molecule=CC1=C(Br)C(C)=[N+]2C1=C(c1ccccc1)c1c(C)c(Br)c(/C=C/c3ccc(OCc4ccc(/N=N/c5ccc(N(CCCl)CCCl)cc5)cc4)cc3)n1[B-]2(F)F measured_result=1.35

Asked: So what does the record say about IC50 for CC1=C(Br)C(C)=[N+]2C1=C(c1ccccc1)c1c(C)c(Br)c(/C=C/c3ccc(O)cc3)n1[B-]2(F)F ?
Given back: 6.99
